target: BIR2 domain of XIAP (Homo sapiens (Human), UniProt P98170, C202A/C213G); test: TR-FRET assay for BIR2 (inhibition of binding of XIAP BIR2 domain to SMAC-derived Peptide A); details: 6x His-tagged BIR2 domain (aa 124-240 of XIAP) 10 nM, Peptide A 20 nM, TR-FRET; read-out: IC50 BIR2
Sequence (P98170 124-240 with tags or gaps C202A/C213G limits assumed): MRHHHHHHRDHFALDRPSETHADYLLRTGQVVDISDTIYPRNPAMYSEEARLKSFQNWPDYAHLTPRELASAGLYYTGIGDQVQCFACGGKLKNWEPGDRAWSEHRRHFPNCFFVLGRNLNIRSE
Where a name gives a salt, the structure may show the parent alone.
Field: label. Allowed values: condition met (IC50 < 30 nM) or condition not met (IC50 >= 30 nM).

compound | cat
CN[C@@H](C)C(=O)N[C@H]1CN(C(=O)CCS(C)(=O)=O)c2cc(C(F)(F)F)ccc2N(Cc2c(C3CC3)cnc3ccccc23)C1=O | condition met
CN[C@@H](C)C(=O)N[C@H]1CN(C(=O)c2ccncc2)c2ccccc2N(Cc2c(C)ccc3ccccc23)C1=O [Example 9, hydrochloride] | condition not met
CN[C@@H](C)C(=O)N[C@H]1CN(C(C)=O)c2cc(C#N)ccc2N(Cc2c(OC)ccc3c(C#N)cccc23)C1=O | condition met
CN[C@@H](C)C(=O)N[C@H]1CN(C(=O)c2ccc(NC(C)=O)cc2)c2ccccc2N(Cc2c(OC)ccc3cc(Br)ccc23)C1=O [Example 76d] | condition met
CN[C@@H](C)C(=O)N[C@H]1CN(C(=O)CCOC)c2cc(C#N)ccc2N(Cc2nn(-c3ccccc3C#N)c3ccccc23)C1=O [Example 173, hydrochloride] | condition not met
CN[C@@H](C)C(=O)N[C@H]1CN(C(=O)c2ccc(C(C)=O)cc2)c2ccccc2N(Cc2noc3cc(Br)ccc23)C1=O [Example 69e] | condition not met
CN[C@@H](C)C(=O)N[C@H]1CN(C(=O)c2ccncc2)c2cc(C#N)ccc2N(Cc2nn(-c3ccccc3C#N)c3ccccc23)C1=O [Example 174, dihydrochloride] | condition met
CN[C@@H](C)C(=O)N[C@H]1CN(C(=O)CCN)c2ccccc2N(Cc2c(OC)ccc3cc(C(=O)O)ccc23)C1=O [Example 62, hydrochloride] | condition met
CN[C@@H](C)C(=O)N[C@H]1CN(C(=O)c2ccc(C(C)=O)cc2)c2ccccc2N(Cc2c(OC)ccc3cc(C(=O)O)ccc23)C1=O [Example 44, hydrochloride] | condition met
CN[C@@H](C)C(=O)N[C@H]1CN2C(=O)CCNC(=O)c3ccc4c(c(OC)ccc4c3)CN(C1=O)c1ccccc12 [Example 63, hydrochloride] | condition met
COc1ccc2cc(Br)ccc2c1CN1C(=O)[C@@H](NC(=O)[C@@H]2CCN2)CN(C(=O)c2ccc(C(C)=O)cc2)c2ccccc21 [Example 36, hydrochloride] | condition not met
